- METHOD_SUMMARY: in vivo
- CONDITION_DETAILS: female, nu/nu, mouse, in vivo, iv
ASSAY_READOUT: LD50 (mg/kg)
Field: numeric (mg/kg). Do not append units.

Query: Fill in the blank: the reported LD50 of CC(=O)O[C@H]1C(=O)[C@@]2(C)[C@H]([C@H](OC(=O)c3ccccc3)[C@]3(O)C[C@H](OC(=O)[C@H](O)[C@@H](NC(=O)c4ccccc4)c4ccccc4)C(C)=C1C3(C)C)[C@]1(OC(C)=O)CO[C@@H]1C[C@@H]2O is ____.
Result: 30

---

- METHOD_SUMMARY: in vivo
- CONDITION_DETAILS: female, nu/nu, mouse, in vivo, iv
ASSAY_READOUT: MTD

Query: Fill in the blank: the reported MTD of CC(=O)O[C@H]1C(=O)[C@@]2(C)[C@H]([C@H](OC(=O)c3ccccc3)[C@]3(O)C[C@H](OC(=O)[C@H](O)[C@@H](NC(=O)c4ccccc4)c4ccccc4)C(C)=C1C3(C)C)[C@]1(OC(C)=O)CO[C@@H]1C[C@@H]2O [PTX, paclitaxel] is ____.
Result: 15 mg/kg
